Origin of measurements: ChEMBL document CHEMBL4715866

Molecular target: Serine/threonine-protein kinase 17A (Homo sapiens, UniProt Q9UEE5)
Sequence (Q9UEE5 whole entry): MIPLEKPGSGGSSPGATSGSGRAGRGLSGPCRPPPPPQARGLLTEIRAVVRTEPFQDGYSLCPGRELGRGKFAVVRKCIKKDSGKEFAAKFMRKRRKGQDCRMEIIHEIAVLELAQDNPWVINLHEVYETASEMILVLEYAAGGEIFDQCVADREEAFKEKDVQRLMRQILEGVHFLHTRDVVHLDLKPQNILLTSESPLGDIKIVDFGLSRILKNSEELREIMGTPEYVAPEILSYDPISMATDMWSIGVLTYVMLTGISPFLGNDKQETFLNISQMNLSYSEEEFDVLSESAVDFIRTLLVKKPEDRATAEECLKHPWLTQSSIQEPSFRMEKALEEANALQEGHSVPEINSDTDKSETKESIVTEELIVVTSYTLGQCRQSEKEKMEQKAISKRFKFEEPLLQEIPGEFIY
Test: Binding affinity to human STK17A incubated for 2 hrs by nano-BRET assay based cellular target engagement assay
pIC50: −log10 of the molar value.
Parameter: pIC50

# Smiles Record, Measured Value
records = [
    ("O=C(O)CSc1ncnc2cc(-c3cc4ccccc4s3)sc12", "< 5.00"),
]
